tgt: Kdr (Homo sapiens)
Construct: Kinases are expressed as either kinase domains or full length constructs; made in house
assay protocol: Kinase inhibition assay (33P transfer), Kdr
Format: biochemical
experimental context: Table 3; read-out: KDR-1
pIC50: −log10 of the molar value.
Catalogue of pIC50 values

smi: COc1cc(Nc2ncnc(-n3c(Nc4ccc(F)cc4)nc4ccccc43)n2)cc(OC)c1OC
pIC50: > 6.09
//
smi: COc1cc(Nc2ncnc(-c3ccc(N4CCOCC4)nc3)n2)cc(OC)c1OC
pIC50: < 4.97

Which pIC50 value is on record for "COC(=O)c1cc(Nc2ncnc(Nc3cc(-c4ccco4)n[nH]3)n2)cc(C(=O)OC)c1" ?
5.26 to 6.04

* * *

tgt: Zap-70 (Homo sapiens, UniProt P43403)
Construct: Kinases are expressed as either kinase domains or full length constructs; made in house
Sequence (P43403 whole entry, species assumed, the tested form may be a part): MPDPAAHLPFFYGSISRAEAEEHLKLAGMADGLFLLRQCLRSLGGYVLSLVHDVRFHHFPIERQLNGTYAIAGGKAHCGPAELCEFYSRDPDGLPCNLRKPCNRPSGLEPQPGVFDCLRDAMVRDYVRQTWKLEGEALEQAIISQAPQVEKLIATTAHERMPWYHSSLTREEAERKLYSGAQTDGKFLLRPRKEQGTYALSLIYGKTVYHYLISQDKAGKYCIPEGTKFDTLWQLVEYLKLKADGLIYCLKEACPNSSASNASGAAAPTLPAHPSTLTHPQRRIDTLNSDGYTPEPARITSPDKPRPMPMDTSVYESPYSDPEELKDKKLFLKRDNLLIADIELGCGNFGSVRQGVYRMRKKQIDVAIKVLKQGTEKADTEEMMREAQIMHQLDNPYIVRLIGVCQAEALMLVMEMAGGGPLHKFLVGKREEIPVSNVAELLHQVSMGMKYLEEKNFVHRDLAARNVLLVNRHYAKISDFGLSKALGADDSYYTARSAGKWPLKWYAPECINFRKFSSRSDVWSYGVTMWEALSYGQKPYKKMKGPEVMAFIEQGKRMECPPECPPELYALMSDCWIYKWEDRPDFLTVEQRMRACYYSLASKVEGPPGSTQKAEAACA
assay protocol: Kinase inhibition assay (33P transfer), Zap-70
Type: biochemical
experimental context: Table 3; read-out: Zap-1
Catalogue of IC50 values

Take a look at these entries with their results.
compound: COc1ccc(N(C)c2ncnc(Nc3cc(OC)c(OC)c(OC)c3)n2)cc1 [Compound 106]
IC50: > 11.3 µM

compound: COc1cc(Nc2ncnc(Nc3cccc4ccccc34)n2)cc(OC)c1OC [Compound 98]
IC50: > 11.2 µM

compound: COC(=O)c1ccc(Nc2ncnc(-c3ccccc3)n2)cc1 [Compound 163]
IC50: > 14.7 µM

compound: COc1cc(Nc2ncnc(N3CCN(c4ncccn4)CC3)n2)cc(OC)c1OC [Compound 214]
IC50: > 10.6 µM

compound: NS(=O)(=O)c1ccc(Nc2ncnc(-n3c(=O)[nH]c4ccccc43)n2)cc1 [Compound 451]
IC50: > 11.7 µM

Which IC50 value is on record for FC(F)C(F)(F)Oc1cccc(Nc2ncnc(-c3cccs3)n2)c1 [Compound 350] ?
> 12.2 µM

# iterate: COc1cc(Nc2ncnc(-n3c(Nc4cccc(C(=O)O)c4)nc4ccccc43)n2)cc(OC)c1OC [Compound 390]
> 8.76 µM

# iterate: COc1cc(Nc2ncnc(Nc3ccc(-c4ccccc4)cc3)n2)cc(OC)c1OC [Compound 100]
0.931 to 5.59 µM

# iterate: COc1cc(Nc2ncnc(N(C/C=C/c3ccccc3)c3ccc(Cl)cc3)n2)cc(OC)c1OC [Compound 56]
> 8.93 µM

# iterate: COc1cc(Nc2ncnc(-n3c(Nc4ccc5cn[nH]c5c4)nc4ccccc43)n2)cc(OC)c1OC [Compound 406]
> 8.83 µM

* * *

Catalogue of pIC50 values
tgt: Kdr (Homo sapiens, UniProt P35968)
Construct: Kinases are expressed as either kinase domains or full length constructs; made in house
Sequence (P35968 20-1356, species assumed): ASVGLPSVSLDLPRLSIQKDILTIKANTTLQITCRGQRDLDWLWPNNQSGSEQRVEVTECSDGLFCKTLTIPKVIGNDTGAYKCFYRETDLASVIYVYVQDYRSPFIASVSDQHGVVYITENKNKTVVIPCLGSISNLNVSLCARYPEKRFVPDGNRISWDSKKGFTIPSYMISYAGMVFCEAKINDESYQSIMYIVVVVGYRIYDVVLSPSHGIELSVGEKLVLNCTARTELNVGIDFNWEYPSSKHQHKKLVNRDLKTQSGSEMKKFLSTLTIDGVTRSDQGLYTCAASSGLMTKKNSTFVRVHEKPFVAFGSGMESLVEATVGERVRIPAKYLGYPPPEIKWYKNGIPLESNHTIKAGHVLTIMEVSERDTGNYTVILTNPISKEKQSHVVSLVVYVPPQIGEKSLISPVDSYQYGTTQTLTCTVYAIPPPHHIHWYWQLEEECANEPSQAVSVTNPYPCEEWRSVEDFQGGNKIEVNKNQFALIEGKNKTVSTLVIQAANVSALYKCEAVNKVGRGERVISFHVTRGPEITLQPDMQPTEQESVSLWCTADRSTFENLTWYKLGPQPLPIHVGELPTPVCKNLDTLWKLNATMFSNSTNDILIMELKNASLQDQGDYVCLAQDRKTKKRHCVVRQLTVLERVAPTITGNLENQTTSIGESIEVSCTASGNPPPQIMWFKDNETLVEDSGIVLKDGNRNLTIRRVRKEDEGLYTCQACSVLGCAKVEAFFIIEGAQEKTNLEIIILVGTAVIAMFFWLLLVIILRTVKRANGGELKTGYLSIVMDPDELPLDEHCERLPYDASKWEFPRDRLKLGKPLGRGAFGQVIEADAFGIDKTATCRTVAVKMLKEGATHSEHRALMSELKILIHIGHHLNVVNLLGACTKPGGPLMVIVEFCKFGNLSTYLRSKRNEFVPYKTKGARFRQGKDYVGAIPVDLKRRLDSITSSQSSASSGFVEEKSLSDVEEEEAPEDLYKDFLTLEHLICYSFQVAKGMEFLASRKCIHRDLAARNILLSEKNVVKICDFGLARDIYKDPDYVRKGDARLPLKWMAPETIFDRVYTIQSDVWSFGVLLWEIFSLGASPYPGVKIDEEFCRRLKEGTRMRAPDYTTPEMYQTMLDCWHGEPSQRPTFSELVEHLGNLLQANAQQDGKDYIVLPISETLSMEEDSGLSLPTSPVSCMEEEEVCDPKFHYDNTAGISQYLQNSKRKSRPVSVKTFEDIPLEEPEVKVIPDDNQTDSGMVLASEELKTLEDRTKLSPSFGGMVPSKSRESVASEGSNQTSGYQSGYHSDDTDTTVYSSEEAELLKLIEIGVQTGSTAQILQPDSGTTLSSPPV
assay protocol: Kinase inhibition assay (33P transfer), Kdr
Type: biochemical
experimental context: Table 3, class symbols; read-out: KDR-1
pIC50: −log10 of the molar value.

Take a look at these entries with their results.
smi: CN(c1ccc(Cl)c(Cl)c1)c1ncnc(Nc2ccc3c(cnn3Cc3ccccc3)c2)n1
pIC50: < 5.02
--
smi: COc1cc(Nc2ncnc(N(CCO)c3ccccc3)n2)cc(OC)c1OC
pIC50: 5.22 to 6.00

Shifting focus to the compound that follows.
Which pIC50 value is on record for "COc1cc(Nc2ncnc(Nc3cc(-c4ccc(C(N)=O)cc4)n[nH]3)n2)cc(OC)c1OC" ?
5.28 to 6.06
